These measurements were taken from ChEMBL document CHEMBL2146445.

assay: Drug uptake in CF1 mouse brain at 50 mg/kg, po after 4 hrs; assay type: ADME, organism-based; set-up: dose 50 mg/kg, route oral; details: read-out: Drug uptake
readout: concentration at 4 h (µM)

(P) CC(C)(C)c1ccc(-c2cc(CC(=O)O)ccc2C(c2ccc(F)cc2)N2CCC(C(F)(F)F)CC2)cc1 (centres undefined)
(Q) CC(C)CCN(Cc1ccc(CC(=O)O)cc1-c1ccc(C(F)(F)F)cc1)c1ccc(C(F)(F)F)cc1
From the items above, decide which of P and Q has the lower concentration at 4 h reading. // caller expects the label of the chosen entry Q

* * *

target: UniProtKB Q12809; experiment: Inhibition of human ERG by patch clamp assay
Sequence (Q12809 whole entry): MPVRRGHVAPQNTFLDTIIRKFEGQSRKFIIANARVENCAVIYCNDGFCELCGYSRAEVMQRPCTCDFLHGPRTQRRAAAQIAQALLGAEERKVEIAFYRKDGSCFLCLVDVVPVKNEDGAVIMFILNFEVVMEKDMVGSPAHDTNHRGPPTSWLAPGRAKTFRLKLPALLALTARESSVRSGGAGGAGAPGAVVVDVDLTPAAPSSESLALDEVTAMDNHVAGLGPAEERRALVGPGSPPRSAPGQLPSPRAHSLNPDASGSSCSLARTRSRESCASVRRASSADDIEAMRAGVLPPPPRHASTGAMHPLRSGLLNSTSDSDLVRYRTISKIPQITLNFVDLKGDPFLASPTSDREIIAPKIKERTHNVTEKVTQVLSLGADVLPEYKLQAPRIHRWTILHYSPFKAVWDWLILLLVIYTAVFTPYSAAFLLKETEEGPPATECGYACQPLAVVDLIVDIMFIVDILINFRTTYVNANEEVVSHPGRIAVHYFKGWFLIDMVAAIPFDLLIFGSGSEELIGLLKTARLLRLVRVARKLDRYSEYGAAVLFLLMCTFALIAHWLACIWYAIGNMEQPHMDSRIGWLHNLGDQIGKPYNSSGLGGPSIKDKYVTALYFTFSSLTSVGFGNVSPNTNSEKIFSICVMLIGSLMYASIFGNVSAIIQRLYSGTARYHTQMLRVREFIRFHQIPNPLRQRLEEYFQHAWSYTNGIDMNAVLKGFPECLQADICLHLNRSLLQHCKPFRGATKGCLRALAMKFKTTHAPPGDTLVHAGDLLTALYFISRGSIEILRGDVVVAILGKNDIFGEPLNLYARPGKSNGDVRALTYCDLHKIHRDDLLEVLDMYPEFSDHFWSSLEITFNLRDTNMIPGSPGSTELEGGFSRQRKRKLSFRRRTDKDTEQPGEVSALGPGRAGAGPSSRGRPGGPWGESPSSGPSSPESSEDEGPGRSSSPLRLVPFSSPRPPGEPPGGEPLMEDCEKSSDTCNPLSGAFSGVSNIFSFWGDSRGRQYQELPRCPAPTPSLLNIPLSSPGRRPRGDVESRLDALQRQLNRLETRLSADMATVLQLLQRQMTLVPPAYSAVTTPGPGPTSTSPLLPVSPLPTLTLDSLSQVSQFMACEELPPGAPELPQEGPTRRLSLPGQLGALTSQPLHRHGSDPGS
readout: EC50 (µM)
# unit: µM | format: bare number

CC1CCN([C@@H](c2ccc(F)cc2)c2ccc([C@H](C)C(=O)O)cc2-c2ccc(C(F)(F)F)cc2)CC1 :: 4.6

Shift focus to the following entry.
# query: EC50 of entry `CC1CCN([C@H](c2ccc(F)cc2)c2ccc([C@@H](C)C(=O)O)cc2-c2ccc(C(F)(F)F)cc2)CC1` 15
